system: P. aeruginosa growth with EDDHA, OD600, 24-30 h; experiment: Pseudomonas aeruginosa growth inhibition with EDDHA – absorbance, plate reader, cherry-picks, dose response (AID 602389)
Activity calls are given as the source filed them.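 Rule for the calls: active = growth down by 35% or more in duplicate, reached at no more than twice the top tested dose; inactive = growth raised instead, and the rest.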
Output constraint: value belongs to TRUE for active, FALSE for inactive

Ask | Recorded test call requested for Cc1cc(NC(=O)Nc2ccccc2[N+](=O)[O-])no1
Reply | FALSE

Ask | Then COC(=O)c1cc(-c2ccc(Br)cc2)on1 ?
Reply | TRUE

Ask | Then N#CC(c1ccc(Cl)cc1)c1cccc(Cl)n1 (configuration not stated) ?
Reply | TRUE

Ask | Then Cc1cc(C)nc(N(C#N)Cc2ccccc2)n1 ?
Reply | FALSE

Ask | Then O=C(NC1CCS(=O)(=O)C1)c1cccc(Br)c1 (configuration not stated) ?
Reply | FALSE

Ask | Then c1ccn2cc(-c3ccc4c(c3)OCCO4)nc2c1 ?
Reply | FALSE

Ask | Then Cc1cccc(C(C#N)c2ccc(Cl)nn2)c1 (configuration not stated) ?
Reply | FALSE
